Measured On: δ-opioid receptor (DOR), Human-ORPD1 (human, UniProt P41143 1-372)
Sequence (P41143 whole entry, stated change not applied): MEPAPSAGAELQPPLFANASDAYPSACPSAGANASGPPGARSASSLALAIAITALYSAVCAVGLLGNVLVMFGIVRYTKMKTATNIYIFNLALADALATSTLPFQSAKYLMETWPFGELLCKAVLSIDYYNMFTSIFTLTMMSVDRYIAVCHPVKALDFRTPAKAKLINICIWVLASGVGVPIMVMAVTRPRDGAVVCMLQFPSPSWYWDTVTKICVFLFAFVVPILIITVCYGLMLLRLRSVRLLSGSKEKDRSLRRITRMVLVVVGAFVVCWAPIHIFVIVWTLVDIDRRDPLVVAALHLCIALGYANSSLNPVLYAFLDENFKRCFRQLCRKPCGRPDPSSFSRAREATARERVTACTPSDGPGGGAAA
Assay Summary: cell-based or functional assay
Square brackets hold non-standard residues; d marks the D form. Phe(2,6-Me2,4-CONH2) = Cc1cc(C(N)=O)cc(C)c1C[C@H](N)C(=O)O; Phe(3,4-(OMe)2) = COc1ccc(C[C@H](N)C(=O)O)cc1OC; Dmt = Cc1cc(O)cc(C)c1C[C@H](N)C(=O)O; β3hF = N[C@H](CC(=O)O)Cc1ccccc1; THP = not defined here; Sar = CNCC(=O)O

Binder	DOR EC50
H-[Phe(2,6-Me2,4-CONH2)]AG[β3hF][Sar]-OH [H-Phe(DMC)-A-G-bhF-Sar-OH]	≤ 200 nM
H-[Phe(4-tetrazolyl)][dA]G[β3hF][Sar]-NH2 [H-Phe(4-tetrazolyl)-a-G-bhF-Sar-NH2]	≤ 200 nM
H-[Dmt][dD]G[β3hF][Sar]-NH2 (SMILES Cc1cc(O)cc(C)c1C[C@H](N)C(=O)N[C@H](CC(=O)O)C(=O)NCC(=O)N[C@H](CC(=O)N(C)CC(N)=O)Cc1ccccc1) [H-DMT-(D)Asp-G-bhF-Sar-NH2]	≤ 1 nM
H-[Dmt][dR][Phe(3,4-(OMe)2)][Sar]-NH2 (SMILES COc1ccc(C[C@H](NC(=O)[C@@H](CCCNC(=N)N)NC(=O)[C@@H](N)Cc2c(C)cc(O)cc2C)C(=O)N(C)CC(N)=O)cc1OC) [H-DMT-r-Phe(3,4-diOMe)-Sar-NH2]	> 200 nM
H-[Dmt][dA][THP][β3hF][Sar]-NH2 (reading uncertain; also: printed as H-DMT-a-THP-bhF-Sar-NH2) [H-DMT-a-THP-bhF-Sar-NH2]	≤ 200 nM

Recorded values, source patent US20190076400A1.
